Test system: Vero E6 infected with SARS-CoV-2
assay-summary: morphology score (similarity to uninfected cells); higher = more like uninfected cells
cond: 24 h
measurement-type: morphology score
# answer = number (no unit)

Solved cases below.
compound="CC(C)N(CCCCOCC(=O)NS(C)(=O)=O)c1cnc(-c2ccccc2)c(-c2ccccc2)n1 [selexipag] (10 µM)" study_system="Vero E6 infected with SARS-CoV-2" measurement_type="morphology score" readout_number=-0.0772
compound="COc1ccc2cc(OCC3(C(=O)O)CN(C(=O)c4ccc(F)cc4)C3)ccc2c1 (10 µM)" study_system="Vero E6 infected with SARS-CoV-2" measurement_type="morphology score" readout_number=0.0418
compound="C[C@@](Cc1ccc(O)c(O)c1)(NN)C(=O)O [carbidopa] (10 µM)" study_system="Vero E6 infected with SARS-CoV-2" measurement_type="morphology score" readout_number=-0.0523
compound="Cc1c(C(=O)NN2CCOCC2)nn(-c2ccc(Cl)cc2Cl)c1-c1ccc(I)cc1 (10 µM)" study_system="Vero E6 infected with SARS-CoV-2" measurement_type="morphology score" readout_number=0.11
compound="Cc1[nH]c2ccccc2c1CCNCc1ccc(/C=C/C(=O)NO)cc1 [panobinostat] (0.833333 µM)" study_system="Vero E6 infected with SARS-CoV-2" measurement_type="morphology score" readout_number=-0.0995
compound="CC(C)CN(C[C@@H](OP(=O)(O)O)[C@H](Cc1ccccc1)NC(=O)O[C@H]1CCOC1)S(=O)(=O)c1ccc(N)cc1 [fosamprenavir] (10 µM)" study_system="Vero E6 infected with SARS-CoV-2" measurement_type="morphology score" readout_number=-0.123
compound="Cc1cn([C@H]2O[C@@H](CO)[C@H](O)[C@H]2F)c(=O)[nH]c1=O [clevudine] (10 µM)" study_system="Vero E6 infected with SARS-CoV-2" measurement_type="morphology score" readout_number=-0.0291
compound="CC(=O)N[C@@H](CC(=O)O)C(=O)N[C@@H](CCC(=O)O)C(=O)O [spaglumic-acid] (10 µM)" study_system="Vero E6 infected with SARS-CoV-2" measurement_type="morphology score" readout_number=0.121

Quick one: morphology score of OC(CN1CCN(c2cccc(Cl)c2)CC1)C(c1ccccc1)c1ccccc1 (stereo not given) (10 µM) ?
-0.0067

Fill in: morphology score of CN(C)N(C)C(=O)[C@@]1(Cc2ccccc2)CCCN(C(=O)[C@@H](Cc2c[nH]c3ccccc23)NC(=O)C(C)(C)N)C1 [anamorelin] (10 µM) is ___
0.0474

###

System: Vero E6 infected with SARS-CoV-2
assay-summary: SARS-CoV-2 infection rate relative to infected DMSO; higher = more infection, active = 60 or less
cond: 24 h
Measured SARS-CoV-2 infection rate, listed per entry for reference.

Would you mind telling me what SARS-CoV-2 infection rate value was observed for CC1Oc2cc(cnc2N)-c2c(nn(C)c2C#N)CN(C)C(=O)c2ccc(F)cc21 (centres undefined) (0.833333 µM) ?
81.5% (inactive)

SARS-CoV-2 infection rate lookup needed for Nc1nc(OCc2ccccc2)c2nc[nH]c2n1 [O6-benzylguanine] (10 µM) , thanks.
108% (inactive)

Could you tell me which SARS-CoV-2 infection rate is on file for O=[N+]([O-])c1cc(Cl)ccc1S(=O)(=O)N1CCN(Cc2ccccc2)CC1 (10 µM) ?
112% (inactive)

Item Cc1c(CC(C)(C)C(=O)O)n(Cc2ccc(Cl)cc2)c2ccc(F)cc12 (10 µM) has what recorded SARS-CoV-2 infection rate?
113% (inactive)

###

Test system: Vero E6 infected with SARS-CoV-2
assay-summary: inhibition of SARS-CoV-2 cytopathic effect; higher = more antiviral protection, active = above 15
cond: 1 nM; 48 h
measurement-type: inhibition of SARS-CoV-2 cytopathic effect (%)
Give your result in % as a bare value.

Below are worked cases with known answers.
compound=O=C1C(=C(O)/C=C/c2ccc(O)cc2)C(=O)[C@@](O)([C@@H]2O[C@H](CO)[C@@H](O)[C@H](O)[C@H]2O)C(=O)[C@H]1[C@@H]1O[C@H](CO)[C@@H](O)[C@H](O)[C@H]1O readout_number=0.73
compound="CN1CC(=O)N=C1NC(=O)Nc1cccc(Cl)c1 [fenobam]" readout_number=0.79
compound="O=C(O)/C=C/c1ccc(-c2ccc(O)c(C34CC5CC(CC(C5)C3)C4)c2)cc1 [adarotene]" readout_number=-0.41

# query: inhibition of SARS-CoV-2 cytopathic effect | item c1ccc2nc(C3=NCCN3)cnc2c1 | system: Vero E6 infected with SARS-CoV-2
2.54

So what inhibition of SARS-CoV-2 cytopathic effect did CN1CCC(=C2c3ccccc3CCc3sccc32)CC1 [pizotifen] get with Vero E6 infected with SARS-CoV-2?
2.55

Any idea what inhibition of SARS-CoV-2 cytopathic effect came out for CCCCOC(=O)c1cc2c(cn1)[nH]c1ccccc12 [beta-CCB] on Vero E6 infected with SARS-CoV-2?
-1.28

###

Tested on: Vero E6 infected with SARS-CoV-2
assay-summary: inhibition of SARS-CoV-2 cytopathic effect; higher = more antiviral protection, active = above 15
cond: 833.33 nM; 48 h
measurement-type: inhibition of SARS-CoV-2 cytopathic effect (%)
Record the value in %, omitting the unit from your answer.

molecule=O=C(O)c1cc(O)c2ccc(Cl)cc2n1 value_units=% readout_number=1.24

Given COc1ccc(-c2nc(N3CCOCC3)c3sc(CN(C)c4ncc(C(=O)NO)cn4)cc3n2)cn1 , state its recorded inhibition of SARS-CoV-2 cytopathic effect.
-20.7

Can you look up the measured inhibition of SARS-CoV-2 cytopathic effect of FC(F)(F)c1ccccc1-c1cc(C(F)(F)F)c2[nH]c(C3=NOC4(CCCCC4)C3)nc2c1 for me?
-2.13

Entry under review: O=c1[nH]c2ccc(Cl)cc2c(N[C@@H]2CN3CCC2CC3)c1-c1nc2ccccc2[nH]1 . Reported inhibition of SARS-CoV-2 cytopathic effect?
-5.44

Would you mind telling me what inhibition of SARS-CoV-2 cytopathic effect value was observed for O=C([O-])CN1CCN(CC(=O)[O-])CCN([C@H](CO)[C@H](O)CO)CCN(CC(=O)[O-])CC1.[Gd+3] (racemic) ?
0.17

# query: inhibition of SARS-CoV-2 cytopathic effect of entry O=C(O)CCCCCCCC(=O)O
0.7

###

System: Vero E6 infected with SARS-CoV-2
assay-summary: inhibition of SARS-CoV-2 cytopathic effect; higher = more antiviral protection, active = above 15
cond: 8.33 nM; 48 h
measurement-type: inhibition of SARS-CoV-2 cytopathic effect

Here's what some known entries look like.
entry_smiles=Oc1ccc2c3c1O[C@H]1c4c(c5ccccc5n4Cc4ccccc4)C[C@@]4(O)[C@@H](C2)N(CC2CC2)CC[C@]314 result="0.67% (inactive)"
entry_smiles=O=C1CC[C@@]2(O)[C@H]3Cc4ccc(O)c5c4[C@@]2(CCN3CC2CC2)[C@H]1O5 result="3.83% (inactive)"
entry_smiles=CCc1nc(-c2cccc(C)c2)c(-c2ccnc(NC(=O)c3ccccc3)c2)s1 result="-0.27% (inactive)"

What value of measured inhibition of SARS-CoV-2 cytopathic effect is listed for COc1ccc(CCN(C)CCc2ccc(OC)c(OC)c2)cc1OC ?
3.91% (inactive)

###

Test system: Vero E6 infected with SARS-CoV-2
assay-summary: inhibition of SARS-CoV-2 cytopathic effect; higher = more antiviral protection, active = above 15
cond: 100 nM; 48 h
measurement-type: inhibition of SARS-CoV-2 cytopathic effect (%)
Answer with a number only, understood to be in %.

molecule=O=C(c1ccc(C(=O)N2CCC(N3CCCC3)CC2)c(Nc2ccccc2)c1)N1CCC(N2CCCC2)CC1 study_system="Vero E6 infected with SARS-CoV-2" value_units=% readout_number=0.31
molecule="CCOC(=O)CCC(=O)O[C@H]1[C@H](O[C@@H]2[C@@H](C)[C@H](O[C@H]3C[C@@](C)(OC)[C@@H](O)[C@H](C)O3)[C@@H](C)C(=O)O[C@H](CC)[C@@](C)(O)[C@H](O)[C@@H](C)C(=O)[C@H](C)C[C@@]2(C)O)O[C@H](C)C[C@@H]1N(C)C [erythromycin-ethylsuccinate]" study_system="Vero E6 infected with SARS-CoV-2" value_units=% readout_number=0.57
molecule="CC(C)OC(=O)C(C)(C)Oc1ccc(C(=O)c2ccc(Cl)cc2)cc1 [fenofibrate]" study_system="Vero E6 infected with SARS-CoV-2" value_units=% readout_number=3.28
molecule=C=C(C)[C@@H]1CC[C@]2(CO)CC[C@]3(C)[C@H](CC[C@@H]4[C@@]5(C)CC[C@H](O)C(C)(C)[C@@H]5CC[C@]43C)[C@@H]12 study_system="Vero E6 infected with SARS-CoV-2" value_units=% readout_number=-7.13

For Vero E6 infected with SARS-CoV-2, provide inhibition of SARS-CoV-2 cytopathic effect of C[C@H]1O[C@@H](O[C@H]2CC[C@@]3(C)[C@H](CC[C@@H]4[C@@H]3C[C@@H](O)[C@]3(C)[C@@H](C5=CC(=O)OC5)CC[C@]43O)C2)C[C@H](O)[C@@H]1O[C@H]1C[C@H](O)[C@H](O[C@H]2C[C@H](O)[C@H](O[C@@H]3O[C@H](CO)[C@@H](O)[C@H](O)[C@H]3O)[C@@H](C)O2)[C@@H](C)O1 [deslanoside] please.
-14.1

# returns recorded inhibition of SARS-CoV-2 cytopathic effect (system: Vero E6 infected with SARS-CoV-2) for O=c1c2ccccc2[se]n1-c1ccccc1 [Ebselen]
0.59

// map N#Cc1cccc(-c2nc(-c3cccnc3)no2)c1 to recorded inhibition of SARS-CoV-2 cytopathic effect (system: Vero E6 infected with SARS-CoV-2)
-0.15

Test system Vero E6 infected with SARS-CoV-2; read-out inhibition of SARS-CoV-2 cytopathic effect; what value for Oc1ccc([C@H]2COc3cc(O)ccc3C2)cc1 [equol] ?
-2.88

// lookup inhibition of SARS-CoV-2 cytopathic effect | system=Vero E6 infected with SARS-CoV-2 | key= Cn1c(NCCN(CCO)CCCc2ccc([N+](=O)[O-])cc2)cc(=O)n(C)c1=O [nifekalant]
-1.76

Write down the reported inhibition of SARS-CoV-2 cytopathic effect of C[C@]12CC[C@H](O)C[C@H]1CC[C@@H]1[C@@H]2C[C@@H](O)[C@]2(C)[C@@H](C3=CC(=O)OC3)CC[C@]12O [digoxigenin] , test system: Vero E6 infected with SARS-CoV-2.
-6.58

// fetch Vero E6 infected with SARS-CoV-2 inhibition of SARS-CoV-2 cytopathic effect for Cc1c(Cl)cccc1S(=O)(=O)Nc1nc(NCCc2ccccc2)nc2c1CN(Cc1ccccc1)CC2
0.14
